Reference for the values: patent US5525629A

target: stromelysin (Homo sapiens); assay: inhibition of stromelysin (Cawston et al, acetylated 14C casein); type: biochemical; details: 37°, 16 hours, pH 7.5
Sequence (P08254 100-477): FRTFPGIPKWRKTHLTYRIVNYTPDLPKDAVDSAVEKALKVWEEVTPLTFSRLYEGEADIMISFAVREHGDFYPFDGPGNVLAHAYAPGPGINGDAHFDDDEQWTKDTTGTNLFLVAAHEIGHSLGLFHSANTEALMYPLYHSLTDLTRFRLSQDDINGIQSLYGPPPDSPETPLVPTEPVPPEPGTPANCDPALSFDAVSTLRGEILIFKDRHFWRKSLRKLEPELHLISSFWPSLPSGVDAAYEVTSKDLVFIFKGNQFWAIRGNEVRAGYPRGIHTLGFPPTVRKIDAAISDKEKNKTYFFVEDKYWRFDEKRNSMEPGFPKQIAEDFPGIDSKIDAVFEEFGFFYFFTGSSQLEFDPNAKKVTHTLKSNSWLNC
VALUE KIND: IC50 (nM)

[A] CNC(=O)[C@H](CCC(=O)OC(C)(C)C)NC(=O)[C@H](CC(C)C)[C@H](CSc1ccc(O)cc1)C(=O)NO [Example 12]
[B] CNC(=O)[C@H](CCC(=O)OC)NC(=O)[C@H](CC(C)C)[C@H](CSc1ccccc1)C(=O)NO [Example 1]
Lookup: Looking at A and B , which one comes out lower in IC50 terms? Answer = label.
Found: A
(A: 40 nM, B: 250 nM)

* * *

Target: collagenase (Homo sapiens, UniProt P03956)
Sequence (P03956 100-469): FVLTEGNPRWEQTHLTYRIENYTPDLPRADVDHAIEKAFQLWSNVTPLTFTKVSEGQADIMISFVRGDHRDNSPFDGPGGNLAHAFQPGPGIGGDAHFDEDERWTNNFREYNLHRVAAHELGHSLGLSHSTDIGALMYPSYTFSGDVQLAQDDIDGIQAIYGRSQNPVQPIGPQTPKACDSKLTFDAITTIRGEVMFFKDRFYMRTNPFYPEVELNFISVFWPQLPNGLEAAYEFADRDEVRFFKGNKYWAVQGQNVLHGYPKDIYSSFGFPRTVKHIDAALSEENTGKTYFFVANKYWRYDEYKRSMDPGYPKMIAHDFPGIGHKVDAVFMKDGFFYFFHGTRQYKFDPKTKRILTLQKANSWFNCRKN
VALUE KIND: pIC50
// scale note: pIC50 = -log10(conc_M); give the bare number

Lookup: Can you look up the measured pIC50 of CNC(=O)[C@H](CCC(=O)OC)NC(=O)[C@H](CC(C)C)[C@H](CSc1ccc(O)cc1)C(=O)NO for me?
Found: 8.05

* * *

test system: TNF α release from a human monocytic cell line, U937; test: inhibition of PMA-stimulated TNF α release from U937 cells (TNF α ELISA); type: cell-based; conditions: U-937, PMA 50 nM, 18 hours at 37° C., read-out: concentration of test compound which inhibits the release of TNF α by 50% relative to the control culture (IC50)
Let's look at some compounds and their measured IC50.

Solved cases (2 shown):
Lookup: Test system TNF α release from a human monocytic cell line, U937; read-out IC50; what value for CNC(=O)[C@H](CCC(=O)OC)NC(=O)[C@H](CC(C)C)[C@H](CSc1cccs1)C(=O)NO ?
Found: < 50 µM

Lookup: How about this compound: CNC(=O)[C@H](CCC(=O)OC(C)(C)C)NC(=O)[C@H](CC(C)C)[C@H](CSc1ccc(O)cc1)C(=O)NO
Found: < 50 µM

Pending compound:
Lookup: Look up IC50 with TNF α release from a human monocytic cell line, U937 for this compound: CNC(=O)[C@H](CCC(=O)OC)NC(=O)[C@H](CC(C)C)[C@H](CSc1ccc(O)cc1)C(=O)NO
Found: < 50 µM
